tested on: CCK-8 induced contraction of guinea pig gall bladder; experiment: Anti-CCK-8 activity on gall bladders in situ; type: in vivo; conditions: Cavia porcellus, iv; CCK-8 10 ng/kg i.v.; read-out: ED50 (inhibition of 50% of contracting effect of CCK-8)
Note to self: use yes only for ED50 readings below 0.3 mg/kg; a reading exactly at 0.3 mg/kg still gets no.

Compound | Assigned label
CCCN(CCC)C(=O)C(CCC(=O)O)NC(=O)c1ccc(C(C)C)cc1 (stereo not drawn) [Compound C-36] | no
CCCN(CCC)C(=O)C(CCC(=O)O)NC(=O)c1cc(C)cc(C)c1 (stereo not drawn) [Compound C-31] | no
CCCCCN(CCCCC)C(=O)C(CCC(=O)O)NC(=O)c1ccc(Cl)c(Cl)c1 (stereo not drawn) [Compound C-7] | yes
CCCCN(CCCC)C(=O)C(CCC(=O)O)NC(=O)c1ccc(Cl)c(Cl)c1 (racemic) [Compound C-6] | yes
CCCN(CCC)C(=O)C(CCC(=O)O)NC(=O)c1ccc(C)c(C)c1 (stereo not drawn) [Compound C-30] | no

###

tested on: morphine analgesia; assay: Increase in analgesia of morphine, Tail Flick Test (Experiment 1); assay type: in vivo, rats; details: mean 10-90 min; compound 10 mg/kg i.p. + morphine 2 mg/kg
Tag: fulfilled if measured M (10-90) ± SE, mean percentage variation of latency is not below 80%, not fulfilled if it is.

Molecule | Assigned label
CCCc1ccc(C(=O)NC(CCC(=O)O)C(=O)N(CCC)CCC)cc1 (centres unmarked) [Compound C-35] | not fulfilled
CCCN(CCC)C(=O)C(CC(=O)O)NC(=O)c1ccccc1Br (centres unmarked) [Compound C-16] | not fulfilled
CC(C)c1ccc(C(=O)NC(CCC(=O)N2CCCCC2)C(=O)O)cc1 (racemic) [Compound D-17] | fulfilled
CCCN(CCC)C(=O)C(CCC(=O)O)NC(=O)c1ccc(Br)cc1 (centres unmarked) [Compound C-15] | not fulfilled

###

tested on: morphine analgesia; experiment: Increase in analgesia of morphine, Tail Flick Test (Experiment 1); format: in vivo, rats; conditions: 90'; compound 10 mg/kg i.p. + morphine 2 mg/kg
Attribute: percentage variation of latency of pain sensation
Readout: percentage variation of latency of pain sensation (%)

Compound | Measurement
CCCN(CCC)C(=O)C(CCC(=O)O)NC(=O)c1ccc(CC(C)C)cc1 (stereo not drawn) [Compound C-38] | 51.1
CCCN(CCC)C(=O)C(CCC(=O)O)NC(=O)c1ccccc1Cl (stereo not drawn) [Compound C-1] | 59.3
CN(C)C(=O)CCC(NC(=O)c1ccc(Cl)c(Cl)c1)C(=O)O [Compound D-1] | 51.0
CCCN(CCC)C(=O)C(CCC(=O)O)NC(=O)c1ccc(C(C)C)cc1 (stereo not drawn) [Compound C-36] | 92.4
CCCCN(CCCC)C(=O)CCC(NC(=O)c1ccc(Cl)c(Cl)c1)C(=O)O [Compound D-2] | 87.5
Cc1ccc(C(=O)NC(CCC(=O)N(C)C)C(=O)O)cc1C [Compound D-12] | 56.1
CCCN(CCC)C(=O)C(CCC(=O)O)NC(=O)c1ccc(I)cc1 (stereo not drawn) [Compound C-18] | 81.4
CCCCN(CCCC)C(=O)C(CCC(=O)O)NC(=O)c1ccc(C)c(C)c1 (stereo not drawn) [Compound C-54] | 63.2
O=C(NC(CCC(=O)N1CCCCC1)C(=O)O)c1ccc(Br)cc1 [Compound D-7] | 32.4

###

test system: morphine analgesia; assay: Increase in analgesia of morphine, Tail Flick Test (Experiment 1); format: in vivo, rats; settings: 90'; compound 10 mg/kg i.p. + morphine 2 mg/kg
Readout: percentage variation of latency of pain sensation (%)

Molecule | Measurement
CC(C)c1ccc(C(=O)NC(CCC(=O)N2CCCCC2)C(=O)O)cc1 (racemic) [Compound D-17] | 100
CCCN(CCC)C(=O)C(CC(=O)O)NC(=O)c1ccccc1Br (stereo not shown) [Compound C-16] | 22.2
Cc1ccc(C(=O)NC(CCC(=O)O)C(=O)NC2CCCCC2)cc1C (stereo not shown) [Compound C-47] | 49.3
CCCN(CCC)C(=O)C(CCC(=O)O)NC(=O)c1ccccc1I (stereo not shown) [Compound C-17] | 31.2
Cc1ccc(C(=O)NC(CCC(=O)O)C(=O)N2CCCCC2)cc1C (stereo not shown) [Compound C-52] | 45.3
CCCCNC(=O)CCC(NC(=O)c1ccc(CC)cc1)C(=O)O [Compound D-13] | 50.9
CCCCN(CCCC)C(=O)C(CCC(=O)O)NC(=O)c1ccc(Br)cc1 (stereo not shown) [Compound C-25] | 20.4
CCCN(CCC)C(=O)C(CCC(=O)O)NC(=O)c1ccc(CC)cc1 (stereo not shown) [Compound C-34] | 59.1
CCCN(CCC)C(=O)C(CCC(=O)O)NC(=O)c1ccc(C(F)(F)F)cc1 (stereo not shown) [Compound C-39] | 81.8
Cc1ccc(C(=O)NC(CCC(=O)O)C(=O)N(C)C)cc1C (stereo not shown) [Compound C-50] | 24.7

###

tested on: biliary flow; test: Biliary flow (choleretic activity); format: in vivo, rat; details: Rattus norvegicus, iv; average over 2 hours; read-out: ED50 (dose causing 50% increase in biliary flow)
Readout: ED50 (mg/kg)

Compound | Readout | Unit tag | Measurement
CCCc1ccc(C(=O)NC(CCC(=O)O)C(=O)N(CCC)CCC)cc1 (stereo not drawn) [Compound C-35] | ED50 | mg/kg | 29.5
N#Cc1cccc(C(=O)NC(CCC(=O)N2CCCCC2)C(=O)O)c1 [Compound D-11] | ED50 | mg/kg | 18.5
CCCN(CCC)C(=O)C(CCC(=O)O)NC(=O)c1ccc(C)c(C)c1 (stereo not drawn) [Compound C-30] | ED50 | mg/kg | 18.5
CCCCN(CCCC)C(=O)C(CCC(=O)O)NC(=O)c1ccc(Cl)c(Cl)c1 (racemic) [Compound C-6] | ED50 | mg/kg | 4.2
CCCN(CCC)C(=O)C(CCC(=O)O)NC(=O)c1ccc(C(C)C)cc1 (stereo not drawn) [Compound C-36] | ED50 | mg/kg | 26.8
CCCN(CCC)C(=O)C(CCC(=O)O)NC(=O)c1cccc(C#N)c1 (stereo not drawn) [Compound C-20] | ED50 | mg/kg | 19.4

###

tested on: morphine analgesia; assay: Increase in analgesia of morphine, Tail Flick Test (Experiment 1); type: in vivo, rats; conditions: mean 10-90 min; compound 10 mg/kg i.p. + morphine 2 mg/kg
Recorded M (10-90) ± SE, mean percentage variation of latency for the following compounds
Readout: M (10-90) ± SE, mean percentage variation of latency (%)

Compound | Measurement
CCCN(CCC)C(=O)C(CCC(=O)O)NC(=O)c1cccc(C)c1 (stereo not shown) | 53.5
CCCCCCN(CCCCCC)C(=O)C(CCC(=O)O)NC(=O)c1ccc(Cl)c(Cl)c1 (stereo not shown) | 75.8
CCCCCN(CCCCC)C(=O)C(CCC(=O)O)NC(=O)c1ccc(Cl)c(Cl)c1 (stereo not shown) | 78.2
O=C(O)CCC(NC(=O)c1ccc(Cl)c(Cl)c1)C(=O)N1CCCCC1 (stereo not shown) | 54.0

###

System: morphine analgesia
Assay: Increase in analgesia of morphine, Tail Flick Test (Experiment 1)
Format: in vivo, rats
Settings: mean 10-90 min; compound 10 mg/kg i.p. + morphine 2 mg/kg
Method: Experiment No: 1 Increase in analgesia of analgesic-narcotic drugs in rats by the Tail Flick Test The method is that described by Harris et al. (J. Pharmacol. Exp. Ther. 143 (1964) 141-148). Male rats are used having a weight of about 150-200 g which have not fasted. A point on the tail is chosen and irradiated by a heat source (75° C.) and the time (in seconds) for which the animal remains without moving its tail is measured. […]
Below is a list of entries, each paired with its recorded M (10-90) ± SE, mean percentage variation of latency value.
Readout: M (10-90) ± SE, mean percentage variation of latency

Compound | Measurement
CCCN(CCC)C(=O)C(CCC(=O)O)NC(=O)c1ccccc1I (stereo not drawn) [Compound C-17] | 35.5 ± 9.5%
CCCN(CCC)C(=O)C(CCC(=O)O)NC(=O)c1cccc(Cl)c1 (stereo not drawn) [Compound C-2] | 55.8 ± 17.0%
CCCCN(CCCC)C(=O)C(CCC(=O)O)NC(=O)c1ccc(Cl)cc1Cl (stereo not drawn) [Compound C-10] | 66.0 ± 5.6%
CCCCN(CCCC)C(=O)CCC(NC(=O)c1ccc(C#N)cc1)C(=O)O [Compound D-8] | 46.7 ± 14.4%
CCCCN(CCCC)C(=O)C(CCC(=O)O)NC(=O)c1ccc(C)c(C)c1 (stereo not drawn) [Compound C-54] | 83.0 ± 15%
CCCCN(CCCC)C(=O)CCC(NC(=O)c1cccc(C#N)c1)C(=O)O [Compound D-5] | 84.3 ± 11.4%
CCCCN(CCCC)C(=O)C(CCC(=O)O)NC(=O)c1cccc(C)c1 (stereo not drawn) [Compound C-53] | 47.2 ± 24%
CCCCNC(=O)C(CCC(=O)O)NC(=O)c1ccc(CC)cc1 (stereo not drawn) [Compound C-43] | 40.7 ± 11%
CCCCCN(CCCCC)C(=O)C(CCC(=O)O)NC(=O)c1ccc(C)c(C)c1 (stereo not drawn) [Compound C-55] | 88.6 ± 12%
CCCN(CCC)C(=O)C(CCC(=O)O)NC(=O)c1cc(F)cc(F)c1 (stereo not drawn) [Compound C-13] | 58.0 ± 18.0%
CCCN(CCC)C(=O)C(CCC(=O)O)NC(=O)c1ccc(CC)cc1 (stereo not drawn) [Compound C-34] | 60.6 ± 23%
CCCNC(=O)CCC(NC(=O)c1ccc(C)c(C)c1)C(=O)O [Compound D-16] | 34.1 ± 17%
CCCN(CCC)C(=O)C(CCC(=O)O)NC(=O)c1cc(I)c(I)c(I)c1 (stereo not drawn) [Compound C-19] | 43.9 ± 22.7%
CCCCc1ccc(C(=O)NC(CCC(=O)O)C(=O)N(CCC)CCC)cc1 (stereo not drawn) [Compound C-37] | 35.9 ± 17%
CCCN(CCC)C(=O)C(CCC(=O)O)NC(=O)c1cccc(C#N)c1 (stereo not drawn) [Compound C-20] | 78.8 ± 21.0%
CCCCN(CCCC)C(=O)C(CCC(=O)O)NC(=O)c1ccc(Cl)c(Cl)c1 (racemic) [Compound C-6] | 77.4 ± 19.6%
CCCNC(=O)C(CCC(=O)O)NC(=O)c1ccc(C)c(C)c1 (stereo not drawn) [Compound C-45] | 84.0 ± 16%
CCCCNC(=O)CCC(NC(=O)c1ccc(CC)cc1)C(=O)O [Compound D-13] | 38.8 ± 20%
